What CC50 was measured for each of the following?
assay: Cytotoxicity against MDCK cells by SRB assay; format: cell-based, Canis lupus familiaris; settings: dog
Answers are plain numbers, in µM.

COMPOUND: CC1=CC(=O)C2(O1)c1c(cc(/C=C/c3ccc(O)c(O)c3)oc1=O)OC2c1ccc(O)c(O)c1 (stereo not given)
CC50 [µM]: 433

Query: Look up CC50 for this compound: CC1=CC(=O)[C@H](c2c(O)cc(/C=C/c3ccc(O)c(O)c3)oc2=O)[C@@H](c2ccc(O)c(O)c2)O1
Reply: 680

* * *

What Retention_time was measured for each of the following?
test: Retention time of the compound; type: physicochemical
Give bare numbers, in min.

Solved cases below.
COMPOUND: O=c1oc2cc(/C=C/c3ccc(O)c(O)c3)oc(=O)c2c2cc(O)c(O)cc12
Retention_time [min]: 18.8
//
COMPOUND: O=c1cc(O)cc([C@H]2c3c(cc(/C=C/c4ccc(O)c(O)c4)oc3=O)O[C@@H]2c2ccc(O)c(O)c2)o1
Retention_time [min]: 14.5
//
COMPOUND: CC1=CC(=O)C2(O1)c1c(cc(/C=C/c3ccc(O)c(O)c3)oc1=O)OC2c1ccc(O)c(O)c1 (stereo not given)
Retention_time [min]: 14.9

Provide reported Retention_time for each item, in the same order as listed.
1. CC1=CC(=O)[C@H](c2c(O)cc(/C=C/c3ccc(O)c(O)c3)oc2=O)[C@@H](c2ccc(O)c(O)c2)O1
2. O=c1cc(O)cc(/C=C/c2ccc(O)c(O)c2)o1

Reply:
[9, 11.6]
